For each of the binders below, state its T1/2.
Molecular target: T1, human bow-Ang-2 tetrameric construct (hBA2) (human)
T1 construct: also called human BA2; hBA2-hIgG1
T1 sequence (chain, as listed by the source limits assumed): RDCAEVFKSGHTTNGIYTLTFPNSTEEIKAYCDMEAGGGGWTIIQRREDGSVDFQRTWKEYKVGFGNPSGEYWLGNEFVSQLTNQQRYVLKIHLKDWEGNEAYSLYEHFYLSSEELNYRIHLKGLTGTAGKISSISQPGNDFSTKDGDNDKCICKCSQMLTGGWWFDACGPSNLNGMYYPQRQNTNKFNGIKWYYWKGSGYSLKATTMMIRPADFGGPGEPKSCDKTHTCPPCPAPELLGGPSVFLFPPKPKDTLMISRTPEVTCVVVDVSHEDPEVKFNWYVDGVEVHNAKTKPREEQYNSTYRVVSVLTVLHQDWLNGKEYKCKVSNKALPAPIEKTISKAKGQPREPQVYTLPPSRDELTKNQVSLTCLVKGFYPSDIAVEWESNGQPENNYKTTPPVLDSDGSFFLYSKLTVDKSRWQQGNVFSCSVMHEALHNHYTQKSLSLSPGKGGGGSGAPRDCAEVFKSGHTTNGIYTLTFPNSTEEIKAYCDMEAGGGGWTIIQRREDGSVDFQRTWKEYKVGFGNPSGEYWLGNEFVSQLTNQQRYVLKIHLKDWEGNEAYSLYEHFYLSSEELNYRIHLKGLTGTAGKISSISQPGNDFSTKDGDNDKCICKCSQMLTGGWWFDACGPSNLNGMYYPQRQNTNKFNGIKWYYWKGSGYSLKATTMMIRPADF
Assay: SPR, captured Ab
Give just the numeric value; h need not be written.

I have this binder here, H1H743N (antibody, V domains shown) VH: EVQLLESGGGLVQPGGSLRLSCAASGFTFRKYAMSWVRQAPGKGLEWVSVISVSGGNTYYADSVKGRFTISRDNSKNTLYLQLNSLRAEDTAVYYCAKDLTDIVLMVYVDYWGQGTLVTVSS VL: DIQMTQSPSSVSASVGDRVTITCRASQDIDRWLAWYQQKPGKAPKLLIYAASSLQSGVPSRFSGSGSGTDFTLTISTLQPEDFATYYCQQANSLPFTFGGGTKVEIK , and I need its recorded T1/2. 18.6

T1/2 for H1H696P (antibody, V domains shown) VH: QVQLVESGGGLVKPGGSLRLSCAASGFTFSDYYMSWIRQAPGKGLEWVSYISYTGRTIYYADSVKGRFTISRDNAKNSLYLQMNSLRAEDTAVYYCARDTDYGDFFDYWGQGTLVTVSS VL: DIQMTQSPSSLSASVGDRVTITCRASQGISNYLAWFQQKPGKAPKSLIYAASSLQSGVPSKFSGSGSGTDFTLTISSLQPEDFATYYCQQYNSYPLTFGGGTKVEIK ? 0.858

Looking for the measured T1/2 of H1H704P (antibody, V domains shown) VH: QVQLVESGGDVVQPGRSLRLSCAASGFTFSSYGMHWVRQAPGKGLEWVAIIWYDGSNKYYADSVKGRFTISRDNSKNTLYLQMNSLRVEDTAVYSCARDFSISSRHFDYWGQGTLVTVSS VL: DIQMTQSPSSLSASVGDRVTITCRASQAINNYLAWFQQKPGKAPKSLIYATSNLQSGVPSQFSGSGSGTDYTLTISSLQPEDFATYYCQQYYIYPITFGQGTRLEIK , can you help? 1.96
